B1: CPEB3 Ribozyme (parent)
chain: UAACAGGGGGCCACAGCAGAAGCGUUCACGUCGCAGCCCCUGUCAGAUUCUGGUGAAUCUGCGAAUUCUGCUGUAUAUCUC

Variants of: B1
Test: self-cleavage, relative activity (ratio to wild type); higher = more cleavage; in vitro, sequencing
Classification field: MET = self-cleavage at or over 0.5; NOT MET = self-cleavage under 0.5.

Inquiry: For this variant, is measured self-cleavage 0.5 or higher? `UAACAGGGGGCCACAGCAGAAGCGCUCACGUCGCAGCCCCUGUCAGAUUCUGGUGAAUCUGCAAAUUCUGCUGUAUAUCUC`
Reply text: NOT MET

Inquiry: For this variant, is measured self-cleavage 0.5 or higher? `UAACAGGGGGCCACGGCAGAAGCGUUCACGUCGCAGCCCCUGUCAGAUUCUGGUGAAUCUGCGAAUUCUGCUGUAUAACUC`
Reply text: MET

Inquiry: For this variant, is measured self-cleavage 0.5 or higher? `UAACAGGGGGCCACAGCACAAGCGUUCACGUCGCAGCCCCCGUCAGAUUCUGGUGAAUCUGCGAAUUCUGCUGUAUAUCUC`
Reply text: NOT MET

Inquiry: For this variant, is measured self-cleavage 0.5 or higher? `UAACAGGGGGCCACAGCAGAAGCGUUCACGGCGCAGCCCCUGUCAGAUUCUGGUGAAUCUGCGAAUUCUGCUGUGUAUCUC`
Reply text: MET

Inquiry: For this variant, is measured self-cleavage 0.5 or higher? `UAACAGGGGGCCACAGCAGAAGCGUUCACGUCGCAGCCCCUGUCAGAUUCUGGUGAAUCUGCGAAUUCUACUGUAUUUCUC`
Reply text: MET

Inquiry: For this variant, is measured self-cleavage 0.5 or higher? `UAACAGGGGGCCACAGCAGAAGCGUUCUCGUCUCAGCCCCUGUCAGAUUCUGGUGAAUCUGCGAAUUCUGCUGUAUAUCUC`
Reply text: NOT MET

Inquiry: For this variant, is measured self-cleavage 0.5 or higher? `UAACAGUGGGCCACAGCAGAAGCGUUCACGUCGCAGCCCCUGUCAGAUUCUGGUAAAUCUGCGAAUUCUGCUGUAUAUCUC`
Reply text: NOT MET

Inquiry: For this variant, is measured self-cleavage 0.5 or higher? `UAACAGGGGGCCACAGCAGAAGCAUUCACGUCGCAGCCCCUGUCCGAUUCUGGUGAAUCUGCGAAUUCUGCUGUAUAUCUC`
Reply text: NOT MET

Inquiry: For this variant, is measured self-cleavage 0.5 or higher? `UAACAGGUGGCCACAGCAGAAGCGUUCACGUCGCAGCCCCUGUCAGAUUCUGGUGAAUCUGCGAAUUCUGCUGUACAUCUC`
Reply text: NOT MET

Inquiry: For this variant, is measured self-cleavage 0.5 or higher? `UAACAGGGGGCCACAGCAGAAGCGUUCACGUCGCAGCCCCUGUCAGAUUUCGGUGAAUCUGCGAAUUCUGCUGUAUAUCUC`
Reply text: MET

Inquiry: For this variant, is measured self-cleavage 0.5 or higher? `UAACAGGGGGCCACAGCAGAAGCGUUCACGUCGCAGCCCCUGUCAGAUUCCUGUGAAUCUGCGAAUUCUGCUGUAUAUCUC`
Reply text: MET

Inquiry: For this variant, is measured self-cleavage 0.5 or higher? `UAACAGGGGGCCGCAGCAGAAGCGUUCACGUCGCAGCCCCUGUCAGAUACUGGUGAAUCUGCGAAUUCUGCUGUAUAUCUC`
Reply text: NOT MET

Inquiry: For this variant, is measured self-cleavage 0.5 or higher? `UAACAGGGGGCCACAGCAGAAGCGUUCACGUCGCAGCCCCUGUCAGAUUCUGGUGUAUCUGCGAAUUCUGCUAUAUAUCUC`
Reply text: MET

Inquiry: For this variant, is measured self-cleavage 0.5 or higher? `UAACAGGGGGCCACAGCAGAAGCGUUCACGUCGCAGCCCCUGUCAGAUUCUGGUGAAUCUGAGAAUUCUGCAGUAUAUCUC`
Reply text: NOT MET

Inquiry: For this variant, is measured self-cleavage 0.5 or higher? `UAACAGGGGGCCACAGCAGAAGCGUUCACGUCGCAGGCCAUGUCAGAUUCUGGUGAAUCUGCGAAUUCUGCUGUAUAUCUC`
Reply text: NOT MET

Inquiry: For this variant, is measured self-cleavage 0.5 or higher? `UAACAUGGGGCCACAGCAGAAGCGUUCACGUCGCAGCCCCUGUCAGAUUCUGGUGUAUCUGCGAAUUCUGCUGUAUAUCUC`
Reply text: NOT MET

Inquiry: For this variant, is measured self-cleavage 0.5 or higher? `UAACAGGGGGCCACAGCAGAAGCGUUCCCGUCGCAGCCCCUGUCAGAUUCUGGUGAAUCUGCGAAUUCUGCUGUAUAUUUC`
Reply text: MET

Inquiry: For this variant, is measured self-cleavage 0.5 or higher? `UAACAGGGGGCCACAGCAGAAGCGUUCACGUCGCAGCCCCUGUCAGAUUCUGGAGAAUCUGCGAAUUCUGCUGUAUAACUC`
Reply text: MET

Inquiry: For this variant, is measured self-cleavage 0.5 or higher? `UAACAGGGGGCCACAGCAGAAGCGUUCACGUCGCAGCCCCUGUCAGAUUCUGGUGAGUCUGCGAAUUCUGCCGUAUAUCUC`
Reply text: MET

Inquiry: For this variant, is measured self-cleavage 0.5 or higher? `UAACAGGGGGCCACAGCAGAAGCGUUCACGUCGCAGCCCCUGUCAGUUUCGGGUGAAUCUGCGAAUUCUGCUGUAUAUCUC`
Reply text: NOT MET
